Measured Uterine Eosinophil (Vmax) (Eosinphil peroxidase Vmaxium), listed per entry.
# Test system: uterine eosinophil peroxidase
# procedureSummary: Uterine Eosinophil Peroxidase (EPO) Assay
# Type: in vivo, Sprague Dawley rats
# conditionSummary: OVX rats, oral, daily for 4 days, dose 10.0 mg/kg
# Method: Seventy-five day old female Sprague Dawley rats (weight range of 200 to 225 g) are obtained from Charles River Laboratories (Portage, Mich.). […] After a one week acclimation period (therefore, two weeks post-OVX) daily dosing with test compound is initiated. […] The animals are then sacrificed by asphyxiation with CO2, the uterus is removed through a midline incision, and a wet uterine weight is determined. […]
measuredParameter: Uterine Eosinophil (Vmax) (Eosinphil peroxidase Vmaxium)

>>> reportedresult("Cl.O=C(c1ccc(OCCN2CCCCC2)cc1Cl)c1c(-c2ccc(O)cc2)sc2cc(O)ccc12")
12.0
>>> reportedresult("Cl.O=C(c1ccc(OCCN2CCCCC2)c(Cl)c1)c1c(-c2ccc(O)cc2)sc2cc(O)ccc12")
30.9
>>> reportedresult("Cl.N#Cc1cc(C(=O)c2c(-c3ccc(O)cc3)sc3cc(O)ccc23)ccc1OCCN1CCCCC1")
7.8
>>> reportedresult("Cl.O=C(c1ccc(OCCN2CCCCC2)c(F)c1)c1c(-c2ccc(O)cc2)sc2cc(O)ccc12")
2.7
